Biological target: T1, 人B7-H3变体1(4Ig-B7-H3) on stable cells 293-h4Ig-B7-H3-copGFP (human, UniProt Q5ZPR3 29-534)
T1 construct: Full-length CDS cloned in pCDH-EF1-T2A-copGFP and expressed on stably transduced cells; residues left by T2A cleavage not described
T1 sequence: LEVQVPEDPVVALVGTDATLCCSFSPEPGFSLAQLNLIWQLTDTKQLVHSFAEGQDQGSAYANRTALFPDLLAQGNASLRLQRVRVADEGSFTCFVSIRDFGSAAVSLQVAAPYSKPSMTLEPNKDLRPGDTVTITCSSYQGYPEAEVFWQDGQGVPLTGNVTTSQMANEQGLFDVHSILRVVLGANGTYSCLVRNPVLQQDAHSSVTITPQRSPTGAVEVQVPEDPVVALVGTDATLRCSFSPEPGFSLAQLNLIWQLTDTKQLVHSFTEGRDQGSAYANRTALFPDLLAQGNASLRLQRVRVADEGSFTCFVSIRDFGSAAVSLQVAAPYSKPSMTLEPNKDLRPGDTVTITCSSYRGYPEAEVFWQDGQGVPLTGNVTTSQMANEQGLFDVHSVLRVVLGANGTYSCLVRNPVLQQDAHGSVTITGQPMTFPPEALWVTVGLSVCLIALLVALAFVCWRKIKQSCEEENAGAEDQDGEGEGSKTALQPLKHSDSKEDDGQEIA
Experiment: FACS, 293-h4Ig-B7-H3-copGFP stable cells
Measured Metric: binding result

Look at this binder and give its reported binding result. scFv-27B4-H2-L4 (scFv, VH-linker-VL in phage display vector pXY, expressed in TG1, purified on a nickel column) scFv: QVQLVQSGAEVKKPGSSVKVSCKASGYTFTTYWISWVRQAPGQGLEWMGGIYPGDGGSNYAQKFQGRVTITADESTSTAYMELSSLRSEDTAVYYCARGGNYISFPMYYWGQGTLVTVSSGGGGSGGGGSGGGGSGGGGASEIVLTQSPDFQSVTPKEKVTITCKASRGVSTALHWYQQKPDQSPKLLIKWASQSFSGVPSRFSGSGSGTDFTLTINSLEAEDAATYYCQQHYDTPYTFGQGTKLEIK
binds

Query (binder): scFv-27B4-H1-L5 (scFv, VH-linker-VL in phage display vector pXY, expressed in TG1, purified on a nickel column) scFv: QVQLVQSGAEVKKPGASVKVSCKASGYTFTTYWMHWVRQAPGQGLEWMGIIYPGDGGSSYAQKFQGRVTMTRDTSTSTVYMELSSLRSEDTAVYYCARGGNYISFPMYYWGQGTLVTVSSGGGGSGGGGSGGGGSGGGGASDIVMTQTPLSLSVTPGQPASISCKASRGVSTALYWYLQKPGQPPQLLIYWASNRFSGVPDRFSGSGSGTDFTLKISRVEAEDVGVYYCQQHYDTPYTFGQGTKLEIK ; field requested: binding result
binds

Query: binding result; subject: scFv-27B4-H5-L4 (scFv, VH-linker-VL in phage display vector pXY, expressed in TG1, purified on a nickel column) scFv: QVQLVESGGGVVQPGRSLRLSCKASGYTFTTYWMHWVRQAPGKGLEWVAVIYPGDGGSYYTDSVKGRFTISRDNSKNTLYLQMNSLRAEDTAVYYCARGGNYISFPMYYWGQGTLVTVSSGGGGSGGGGSGGGGSGGGGASEIVLTQSPDFQSVTPKEKVTITCKASRGVSTALHWYQQKPDQSPKLLIKWASQSFSGVPSRFSGSGSGTDFTLTINSLEAEDAATYYCQQHYDTPYTFGQGTKLEIK
binds
